- experimental target: RhlR (Pseudomonas aeruginosa, UniProt P54292)
- Construct: expressed in transfected cells; host or cells: E. coli JLD271 (K-12 ΔlacX74 sdiA271::Cam) carrying pJN105-R2 (RhlR expression) and pSC11-rhlI (rhlI'-lacZ reporter)
- Sequence (P54292 whole entry): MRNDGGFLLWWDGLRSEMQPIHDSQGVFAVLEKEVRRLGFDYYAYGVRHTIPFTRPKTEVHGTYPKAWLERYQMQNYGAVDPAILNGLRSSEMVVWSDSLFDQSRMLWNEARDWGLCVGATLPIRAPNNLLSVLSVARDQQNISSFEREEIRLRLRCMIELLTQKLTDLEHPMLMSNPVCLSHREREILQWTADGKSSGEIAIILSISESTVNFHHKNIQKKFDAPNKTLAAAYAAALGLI
- measurement description: E. coli (JLD271) RhlR reporter antagonism assay, in competition with BHL
- Type: cell-based
- condition info: E. coli RhlR reporter; BHL at 10 μM set to 0%, media control set to 100%
Criterion: max. RhlR inhibition (%) meeting or surpassing 90%. Met: 1. Not met: 0.

- chemical structure: "O=C1OCC[C@@H]1NS(=O)(=O)c1ccc(C(F)(F)F)cc1"
  group: 1

(Q) Answer whether max. RhlR inhibition (%) of `O=C1OCC[C@@H]1NS(=O)(=O)c1cccc(Cl)c1` is greater than or equal to 90%.
(A) 1

(Q) For this compound, is measured max. RhlR inhibition (%) 90% or higher? `O=C1OCC[C@@H]1NS(=O)(=O)c1ccccc1Cl`
(A) 1

(Q) Entry `O=C1OCC[C@@H]1NS(=O)(=O)c1ccccc1` : is its max. RhlR inhibition (%) no less than 90%?
(A) 1

(Q) Check if max. RhlR inhibition (%) >= 90% (inclusive). Item: `CCCCCCS(=O)(=O)N[C@H]1CCOC1=O`
(A) 0

(Q) Please indicate if the recorded max. RhlR inhibition (%) for `O=C1OCC[C@H]1NS(=O)(=O)c1ccc(Cl)c(Cl)c1` meets or exceeds 90%.
(A) 1

(Q) Quick check, max. RhlR inhibition (%) >= 90%? `O=C1OCC[C@@H]1NS(=O)(=O)c1ccc(F)c(F)c1`
(A) 0
